assay: in vivo; conditions: mouse, ip, NMRI male mice, suspended in Tween 80 at 1% plus CMC at 2% in physiological serum, read-out: LD 50 mg/kg. i.p. NMRI mouse
Task for the reader: assign each of the following molecules its reported LD50.

Answered cases to consult:
[
  {
    "Molecule": "CC(C)(Oc1ccc(C(=O)c2ccc(Cl)cc2)cc1)C(=O)NC(N)=O [ITA-374]",
    "LD50": "> 3000 mg/kg"
  },
  {
    "Molecule": "COc1ccc2c(c1)c(CC(=O)NC(=O)NCN1CCOCC1)c(C)n2C(=O)c1ccc(Cl)cc1 [ITA-377]",
    "LD50": "> 3000 mg/kg"
  }
]

Moving on to the next molecule.
What value of LD50 has been recorded for this entry: O=C(COc1ccc(Cl)cc1)NC(=O)NCN1CCOCC1 [ITA-372] 300 mg/kg
